molecular target: recombinant human glycogen synthase kinase 3 beta (Homo sapiens, UniProt P49841); test: GSK-3 beta inhibition assay; assay type: biochemical; details: 0.5 h; 50 μM compound; percentage of enzyme activity remaining
Sequence (P49841 whole entry): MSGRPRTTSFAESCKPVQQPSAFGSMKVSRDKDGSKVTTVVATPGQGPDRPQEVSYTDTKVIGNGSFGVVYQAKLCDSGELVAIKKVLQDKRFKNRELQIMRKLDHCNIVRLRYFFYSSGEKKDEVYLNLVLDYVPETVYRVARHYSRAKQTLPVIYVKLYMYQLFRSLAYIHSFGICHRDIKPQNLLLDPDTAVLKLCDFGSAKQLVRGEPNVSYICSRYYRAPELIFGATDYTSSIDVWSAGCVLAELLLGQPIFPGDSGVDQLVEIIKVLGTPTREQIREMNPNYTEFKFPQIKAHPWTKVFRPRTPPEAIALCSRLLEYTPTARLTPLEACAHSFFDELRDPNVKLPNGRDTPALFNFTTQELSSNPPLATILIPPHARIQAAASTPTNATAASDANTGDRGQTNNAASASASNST
The molecules listed here are annotated with their remaining activity at 50 µM.
Value type: remaining activity at 50 µM

> print(dat)
                                        mol  result
1  COCOC(=O)c1ccc(OC)c(OC/C=C(\C)CCC=C(C)C)c1   18.6%
2  CC(=O)Nc1ccc(C(=O)O)cc1OC/C=C(\C)CC/C=C(\C)CCC=C(C)C   57.5%
3  COc1ccc(C(=O)OC/C=C(\C)CCC=C(C)C)cc1OC/C=C(\C)CCC=C(C)C   58.2%
4  COc1ccc(C(=O)NC/C=C(\C)CCC=C(C)C)cc1OC/C=C(\C)CCC=C(C)C   27.9%
5  COC(=O)c1ccc(OC)c(OC/C=C(\C)CCC=C(C)C)c1C/C=C(\C)CCC=C(C)C   19.5%
6  COC(=O)c1ccc(N)c(OC/C=C(\C)CC/C=C(\C)CCC=C(C)C)c1   59.5%
7  CC(C)=CCC/C(C)=C/CC/C(C)=C/COc1cc(C(=O)O)ccc1N   65.5%
8  CC(C)=CCC/C(C)=C/CC/C(C)=C/COc1ccc(C(=O)O)cc1OC/C=C(\C)CC/C=C(\C)CCC=C(C)C   4.55%
